biological target: Streptavidin (UniProt P22629 25-183); experiment: SPR; kon 1.5e4 M-1 s-1, koff 2.2e-3 s-1; 1:1 Langmuir fit, chi2 0.535; 900 RU chip; Binding buffer 20 mM Tris, 140 mM NaCl, 5 mM MgCl2, 2 mM CaCl2, 2 mM KCl, 0.05% Tween 20, pH 7.4; SPR at 25 C, 30 ul/min; FLAA 1 h at room temperature; settings: protein: commercial; chain copies: 4
Sequence (P22629 25-183): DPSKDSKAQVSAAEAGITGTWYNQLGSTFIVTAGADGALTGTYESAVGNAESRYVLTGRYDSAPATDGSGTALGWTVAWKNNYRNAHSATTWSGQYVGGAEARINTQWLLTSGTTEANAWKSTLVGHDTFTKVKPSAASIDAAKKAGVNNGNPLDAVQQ

{"Binder": "ATCTCCGATTGCCCCACGACGCAGTGGTCGGAGTTACTTT (ssDNA) [R10#17]", "Units Symbol": "nM", "Kd": 140}
